# System tested: ABL1 (Homo sapiens, UniProt P00519)
# Sequence (P00519 whole entry, species assumed): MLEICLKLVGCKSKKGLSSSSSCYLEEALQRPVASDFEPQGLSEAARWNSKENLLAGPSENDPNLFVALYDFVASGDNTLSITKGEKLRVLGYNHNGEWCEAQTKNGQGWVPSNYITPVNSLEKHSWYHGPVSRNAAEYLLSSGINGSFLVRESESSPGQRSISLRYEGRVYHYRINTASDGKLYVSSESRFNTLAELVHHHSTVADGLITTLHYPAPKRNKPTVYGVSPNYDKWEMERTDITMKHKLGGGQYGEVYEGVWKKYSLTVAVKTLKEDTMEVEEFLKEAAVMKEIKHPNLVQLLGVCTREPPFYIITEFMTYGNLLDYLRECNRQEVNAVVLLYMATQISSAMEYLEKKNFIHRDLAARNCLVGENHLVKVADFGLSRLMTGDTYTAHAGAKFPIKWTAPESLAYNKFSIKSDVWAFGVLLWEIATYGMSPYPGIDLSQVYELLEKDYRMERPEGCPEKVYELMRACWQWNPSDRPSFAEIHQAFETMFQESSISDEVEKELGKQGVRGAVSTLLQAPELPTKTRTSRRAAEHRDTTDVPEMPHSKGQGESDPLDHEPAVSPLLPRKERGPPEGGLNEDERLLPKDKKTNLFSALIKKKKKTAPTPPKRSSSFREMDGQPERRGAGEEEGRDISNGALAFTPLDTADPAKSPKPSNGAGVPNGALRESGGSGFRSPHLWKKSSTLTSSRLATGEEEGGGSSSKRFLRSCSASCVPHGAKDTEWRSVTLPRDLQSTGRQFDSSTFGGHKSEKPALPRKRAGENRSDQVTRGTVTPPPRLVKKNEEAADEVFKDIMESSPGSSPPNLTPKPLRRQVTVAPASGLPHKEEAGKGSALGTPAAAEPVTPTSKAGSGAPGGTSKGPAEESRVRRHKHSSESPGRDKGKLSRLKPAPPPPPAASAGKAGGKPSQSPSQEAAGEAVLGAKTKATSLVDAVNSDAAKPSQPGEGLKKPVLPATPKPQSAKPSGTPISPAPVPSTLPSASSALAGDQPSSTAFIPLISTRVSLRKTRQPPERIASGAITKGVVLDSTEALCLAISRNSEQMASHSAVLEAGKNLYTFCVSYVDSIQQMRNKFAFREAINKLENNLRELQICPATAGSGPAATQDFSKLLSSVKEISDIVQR
Attribute measured: pIC50
Please note pIC50 is a logarithmic value: minus log10 of concentration in mol/L. Answer with that number alone.

Checklist item: pIC50 tested on ABL1 (Homo sapiens, UniProt P00519), entry Cc1ccc(NC(=O)c2ccc(CN3CCN(C)CC3)cc2)cc1Oc1nccc(-c2cc3ccccc3o2)n1 , value?
5.03

---

# System tested: UniProtKB P15056
# Sequence (P15056 whole entry, species assumed): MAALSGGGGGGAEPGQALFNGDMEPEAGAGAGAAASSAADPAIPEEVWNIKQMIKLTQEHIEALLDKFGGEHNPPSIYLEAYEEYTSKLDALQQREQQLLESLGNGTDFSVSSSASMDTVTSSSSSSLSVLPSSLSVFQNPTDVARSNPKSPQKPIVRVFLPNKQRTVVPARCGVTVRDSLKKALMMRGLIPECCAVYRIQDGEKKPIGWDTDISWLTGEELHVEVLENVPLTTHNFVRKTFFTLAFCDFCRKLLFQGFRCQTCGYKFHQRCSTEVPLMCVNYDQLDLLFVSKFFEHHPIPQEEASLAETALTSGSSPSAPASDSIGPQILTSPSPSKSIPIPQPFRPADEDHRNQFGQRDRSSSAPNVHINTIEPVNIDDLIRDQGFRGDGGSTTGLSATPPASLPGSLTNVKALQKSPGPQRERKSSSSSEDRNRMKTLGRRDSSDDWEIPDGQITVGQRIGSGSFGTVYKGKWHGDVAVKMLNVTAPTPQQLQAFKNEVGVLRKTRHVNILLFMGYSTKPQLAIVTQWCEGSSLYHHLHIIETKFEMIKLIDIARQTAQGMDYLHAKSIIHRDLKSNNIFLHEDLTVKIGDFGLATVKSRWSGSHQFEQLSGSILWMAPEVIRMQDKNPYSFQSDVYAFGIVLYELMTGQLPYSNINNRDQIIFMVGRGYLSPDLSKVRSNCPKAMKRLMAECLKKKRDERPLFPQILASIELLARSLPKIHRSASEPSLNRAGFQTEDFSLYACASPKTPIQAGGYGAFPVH
pIC50: −log10 of the molar value.
Attribute measured: pIC50

Item Cc1ccc(NC(=O)c2ccc(CN3CCN(C)CC3)cc2)cc1Oc1nccc(-c2cc3ccccc3o2)n1 with UniProtKB P15056 - pIC50?
< 4.60

---

# System tested: UniProtKB P51451
# Sequence (P51451 whole entry, species assumed): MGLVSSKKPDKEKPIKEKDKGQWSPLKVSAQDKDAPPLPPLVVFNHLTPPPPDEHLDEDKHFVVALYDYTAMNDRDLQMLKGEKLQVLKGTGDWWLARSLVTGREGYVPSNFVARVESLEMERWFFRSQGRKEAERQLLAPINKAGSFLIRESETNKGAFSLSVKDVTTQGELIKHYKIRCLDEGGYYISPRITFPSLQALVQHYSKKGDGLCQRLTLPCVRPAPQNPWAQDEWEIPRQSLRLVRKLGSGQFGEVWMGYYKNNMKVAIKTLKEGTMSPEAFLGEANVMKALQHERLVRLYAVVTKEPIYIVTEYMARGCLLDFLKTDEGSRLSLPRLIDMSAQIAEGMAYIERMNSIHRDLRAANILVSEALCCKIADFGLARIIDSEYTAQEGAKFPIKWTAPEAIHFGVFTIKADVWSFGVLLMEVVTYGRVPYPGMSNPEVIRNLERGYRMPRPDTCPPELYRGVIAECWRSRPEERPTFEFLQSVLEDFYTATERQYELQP
Attribute measured: IC50

Lab note: need IC50 for Cc1ccc(NC(=O)c2ccc(CN3CCN(C)CC3)cc2)cc1Oc1nccc(-c2cc3ccccc3o2)n1 on UniProtKB P51451, anyone have it?
> 25 µM

---

# System: QGY-7703
# Assay comment: CellTiter-Glo luminescent cell viability assay
# Type: cell-based
# Run conditions: 120 h incubation, read-out: Anti-proliferative activity IC50 QGY-7703
We label by threshold. Values of IC50 strictly beneath 20 µM are yes. Values of 20 µM and up are no.

Compound: COc1ccc(C(=O)Nc2ccc(C)c(Oc3nccc(-c4ccccc4)n3)c2)cc1
Classification: yes
//
Compound: Cc1ccc(NC(=O)c2cccc(Cl)c2)cc1Oc1nccc(-c2ccccc2)n1
Classification: no
//
Compound: Cc1ccc(NC(=O)c2cccs2)cc1Oc1nccc(-c2cccc3ccccc23)n1
Classification: no
//
Compound: COc1ccc(C(=O)Nc2ccc(C)c(Oc3nccc(-c4ccco4)n3)c2)cc1
Classification: yes
//
Compound: Cc1ccc(NC(=O)c2ccccc2)cc1Oc1nccc(-c2ccco2)n1 [D1]
Classification: yes

Moving on to the next compound.
In plain terms, does CC(=O)Nc1ccc(C)c(Oc2nccc(-c3cc4ccccc4n3C)n2)c1 come in under 20 µM for IC50?
no

---

# System tested: PDGFRβ (Homo sapiens)
# Sequence (P09619 33-1106): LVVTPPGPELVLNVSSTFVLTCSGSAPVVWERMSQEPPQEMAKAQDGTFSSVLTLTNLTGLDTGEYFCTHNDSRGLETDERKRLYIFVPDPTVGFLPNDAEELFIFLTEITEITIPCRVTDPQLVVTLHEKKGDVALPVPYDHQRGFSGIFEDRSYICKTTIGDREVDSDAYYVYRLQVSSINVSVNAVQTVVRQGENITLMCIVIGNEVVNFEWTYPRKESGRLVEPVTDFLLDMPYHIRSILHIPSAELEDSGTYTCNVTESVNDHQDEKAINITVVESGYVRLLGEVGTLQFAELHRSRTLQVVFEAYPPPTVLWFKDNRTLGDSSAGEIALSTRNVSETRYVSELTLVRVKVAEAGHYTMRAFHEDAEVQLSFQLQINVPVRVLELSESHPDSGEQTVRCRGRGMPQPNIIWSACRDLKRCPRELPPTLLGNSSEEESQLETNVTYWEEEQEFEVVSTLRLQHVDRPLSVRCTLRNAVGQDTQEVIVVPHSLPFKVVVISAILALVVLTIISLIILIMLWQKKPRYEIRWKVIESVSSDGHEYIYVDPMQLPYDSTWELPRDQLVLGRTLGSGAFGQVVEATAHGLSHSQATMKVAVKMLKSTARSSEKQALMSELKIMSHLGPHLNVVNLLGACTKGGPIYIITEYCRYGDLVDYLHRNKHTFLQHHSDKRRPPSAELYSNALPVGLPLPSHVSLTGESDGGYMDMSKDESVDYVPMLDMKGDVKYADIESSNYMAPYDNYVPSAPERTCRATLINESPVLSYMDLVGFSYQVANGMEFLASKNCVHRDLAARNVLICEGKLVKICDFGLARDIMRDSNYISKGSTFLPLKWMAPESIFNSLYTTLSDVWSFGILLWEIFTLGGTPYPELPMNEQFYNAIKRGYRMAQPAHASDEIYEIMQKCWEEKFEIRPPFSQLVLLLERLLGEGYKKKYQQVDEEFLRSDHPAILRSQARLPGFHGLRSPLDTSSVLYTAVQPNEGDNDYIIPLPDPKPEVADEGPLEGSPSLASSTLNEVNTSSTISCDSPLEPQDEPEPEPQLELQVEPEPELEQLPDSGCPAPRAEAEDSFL
# Assay comment: PDGFR kinase assay, Caliper microfluidic mobility shift
# Assay type: biochemical
# Run conditions: compound at 1 µM; averages of two separate experiments
# Method: In vitro inhibitory activities of all compounds at 1 μM against PDGFRα and PDGFRβ were evaluated using Caliper microfluidic mobility shift technology. […] At the same concentration, only E5 inhibited greater than 50% of PDGFRβ activity (Fig. 2B). PDGFR kinase activity was measured using Caliper microfluidic mobility shift technology. […] The electrophoretic separation of the phosphorylated and non-phosphorylated peptides was then carried out on LabChip EZ Reader II (Caliper Life Sciences). […]
Attribute measured: Inhibition effect (%) PDGFRβ
Respond numerically; units are % and should not be typed.

Molecule: Cc1ccc(NC(=O)c2cccnc2)cc1Oc1nccc(-c2cccnc2)n1 [A11]
System tested: PDGFRβ (Homo sapiens)
Quantitative result: 6.84
--
Molecule: Cc1ccc(NC(=O)c2ccc(F)cc2)cc1Oc1nccc(-c2cccnc2)n1 [A10]
System tested: PDGFRβ (Homo sapiens)
Quantitative result: 30.94

// Inhibition effect (%) PDGFRβ lookup, key: Cc1ccc(NC(=O)Cc2ccccc2)cc1Oc1nccc(-c2ccco2)n1 [D2]
46.75

Query (molecule): CC(=O)Nc1ccc(C)c(Oc2nccc(-c3cccc4ccccc34)n2)c1 [C1] ; field requested: Inhibition effect (%) PDGFRβ
1.32
